Data provenance: ChEMBL document CHEMBL1177735

Form field: IC50 (one value per entry).
- Tested on: B16-F10
- protocolDetails: Cytotoxicity against mouse B16F10 cells after 72 hrs by MTT colorimetric assay
- Assay type: functional, cell-based
- conditionDescription: B16-F10, 72 h
Counter-ions that a name gives are not always drawn.
readoutName: IC50

In [3]: df
Out[3]:
                                    compound  recordedmeasurement
 0  COc1cc2c(cc1OC)[C@@H]1[C@H](O)[C@@H](OC)C=C3CCN(C2)[C@H]31 [GALANTHINE]              > 10 µM
 1  COc1c2c(cc3c1OCO3)[C@@]13CCN(C2)[C@@H]1CC=C[C@H]3O [BUPHANAMINE]              > 10 µM
 2  CO[C@@H]1C=C[C@@]23c4cc5c(cc4CO[C@]2(O)CN(C)[C@H]3C1)OCO5 [TAZETTINE]              > 10 µM
 3  CO[C@@H]1C=C[C@@]23c4cc5c(cc4[C@@H](O)N(C[C@H]2O)[C@H]3C1)OCO5 [HAEMANTHIDINE]               3.1 µM
 4  CO[C@@H]1C=C[C@@]23c4cc5c(cc4CN(C[C@@H]2O)[C@H]3C1)OCO5 [(+)-HAEMANTHAMINE]               6.8 µM
 5  COc1cc2c(cc1O)CN1CCC3=CC[C@@H](O)[C@@H]2[C@@H]31 [NORPLUVINE]              > 10 µM
 6  O[C@@H]1CC=C2CCN3Cc4cc5c(cc4[C@H]1[C@@H]23)OCO5 [CARANINE]              > 10 µM
 7  CC(O)CC(=O)O[C@H]1C[C@H]2CCN(C)[C@H]2[C@@H]2c3cc4c(cc3C(=O)O[C@H]21)OCO4 (some centres not stated) [NOBILISITINE B]              > 10 µM
 8  COc1c2c(cc3c1OCO3)[C@]13C=C[C@H](OC)C[C@H]1N(C2)C[C@@H]3O [AMBELLINE]              > 10 µM
 9  [O-]c1cc2c3c(c1)c1cc4c(cc1c[n+]3CC2)OCO4 [UNGEREMINE]              > 10 µM
10  CN1CC[C@@H]2C[C@H](O)[C@@H]3OC(=O)c4cc5c(cc4[C@H]3[C@@H]21)OCO5 [CLIVONINE HYDROCHLORIDE]              > 10 µM
11  COC1C=C[C@@]23CCN(Cc4cc5c(cc42)OCO5)[C@@H]3C1 (some centres not stated)              > 10 µM
